Tested on: sodium channel
Test: Guanidine influx assay (14C-guanidine radiotracer flux) in a known cell line that expresses a sodium channel
Assay type: cell-based, human or rat
Metric name: IC50

>>> val("CCCCCN1C(=O)C2(COc3ccccc32)c2ccccc21 (centres unmarked)")
"10 to 100 nM"

# IC50 (compound: O=C(CN1C(=O)C2(COc3ccc(-c4cccnc4)cc32)c2ccccc21)Nc1ccccc1F (centres unmarked) ) is 100 to 1000 nM

# IC50 (compound: CCCCCN1C(=O)C2(CCc3cc4c(cc32)OCO4)c2ccccc21 (centres unmarked) ) is 100 to 1000 nM

# IC50 (compound: CCCCCN1C(=O)C2(CNC(=O)c3cc4c(cc32)OCO4)c2ccccc21 (centres unmarked) ) is > 1000 nM

# IC50 (compound: O=C(NCCc1ccc(Cl)cc1)c1ccccc1CN1C(=O)C2(COc3cc4c(cc32)OCO4)c2ccccc21 (centres unmarked) ) is 100 to 1000 nM
